Target: CXCL3_HUMAN (human, UniProt P19876 35-107)
Sequence (P19876 35-107): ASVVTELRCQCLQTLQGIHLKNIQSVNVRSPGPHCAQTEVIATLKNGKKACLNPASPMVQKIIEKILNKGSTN
Assay: BLI; previously obtained data
outcome measure: pKd
On this scale, pKd is minus log10 of a concentration expressed in M (mol/L).

Can you share its pKd? I mean this binder: P1156_IXORI (other) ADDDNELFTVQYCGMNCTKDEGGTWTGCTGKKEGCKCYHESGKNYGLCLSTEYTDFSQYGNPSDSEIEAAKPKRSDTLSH
7.15

Numbers sourced from patent US20200247855A1.
